Test system: SB.mhdgc-1
experiment description: area under the dose-response curve of % viability (trapezoidal, 11 doses) (% viability x log10 concentration); higher = less cytotoxic
test context: SB.mhdgc-1 (hereditary c.1380delA CDH1 gastric cancer)
readout label: area under the dose-response curve
Would you mind answering with just the numeric figure?

For orientation, consider the following solved cases.
>  <compound>
C[C@]12CC[C@@H]3c4ccc(O)cc4CC[C@H]3[C@@H]1CC[C@@H]2O [Estradiol] (top concentration 46.0829 µM)

>  <assayed target>
SB.mhdgc-1

>  <area under the dose-response curve>
565

$$$$
>  <compound>
COc1cc2nccc(Oc3ccc(NC(=O)Nc4ccc(F)cc4F)c(F)c3)c2cc1OC [KI-8751] (top concentration 46.0829 µM)

>  <assayed target>
SB.mhdgc-1

>  <area under the dose-response curve>
490

$$$$

Using the record for O=C(C=CC#Cc1cccc(N[S+](=O)([O-])c2ccccc2)c1)NO [Oxamflatin] (top concentration 46.0829 µM) , state its measured area under the dose-response curve.
403
